Assayed System: Integrin alpha-IIb/beta-3 (Homo sapiens, UniProt P05106+P08514)
Sequence (P05106 27-788 limits assumed): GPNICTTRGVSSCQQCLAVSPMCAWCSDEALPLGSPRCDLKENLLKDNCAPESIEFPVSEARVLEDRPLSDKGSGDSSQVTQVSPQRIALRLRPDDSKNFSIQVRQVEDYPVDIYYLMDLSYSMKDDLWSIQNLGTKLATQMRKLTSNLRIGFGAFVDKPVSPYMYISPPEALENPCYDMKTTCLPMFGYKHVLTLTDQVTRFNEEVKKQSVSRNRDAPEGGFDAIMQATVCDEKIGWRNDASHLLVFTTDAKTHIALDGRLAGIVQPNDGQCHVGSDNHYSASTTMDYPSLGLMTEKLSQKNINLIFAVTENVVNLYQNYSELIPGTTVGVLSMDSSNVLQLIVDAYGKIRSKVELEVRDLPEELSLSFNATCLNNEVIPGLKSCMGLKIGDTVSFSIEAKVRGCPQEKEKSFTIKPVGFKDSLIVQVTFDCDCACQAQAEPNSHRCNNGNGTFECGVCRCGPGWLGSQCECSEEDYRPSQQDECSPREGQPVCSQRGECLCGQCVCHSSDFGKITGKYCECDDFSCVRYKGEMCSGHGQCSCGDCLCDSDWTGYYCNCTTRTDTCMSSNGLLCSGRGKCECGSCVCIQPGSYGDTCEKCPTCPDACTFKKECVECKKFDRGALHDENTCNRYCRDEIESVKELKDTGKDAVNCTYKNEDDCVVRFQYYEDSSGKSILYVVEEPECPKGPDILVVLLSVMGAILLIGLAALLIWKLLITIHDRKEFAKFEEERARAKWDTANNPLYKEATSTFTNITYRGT
Sequence (P08514 32-887 limits assumed): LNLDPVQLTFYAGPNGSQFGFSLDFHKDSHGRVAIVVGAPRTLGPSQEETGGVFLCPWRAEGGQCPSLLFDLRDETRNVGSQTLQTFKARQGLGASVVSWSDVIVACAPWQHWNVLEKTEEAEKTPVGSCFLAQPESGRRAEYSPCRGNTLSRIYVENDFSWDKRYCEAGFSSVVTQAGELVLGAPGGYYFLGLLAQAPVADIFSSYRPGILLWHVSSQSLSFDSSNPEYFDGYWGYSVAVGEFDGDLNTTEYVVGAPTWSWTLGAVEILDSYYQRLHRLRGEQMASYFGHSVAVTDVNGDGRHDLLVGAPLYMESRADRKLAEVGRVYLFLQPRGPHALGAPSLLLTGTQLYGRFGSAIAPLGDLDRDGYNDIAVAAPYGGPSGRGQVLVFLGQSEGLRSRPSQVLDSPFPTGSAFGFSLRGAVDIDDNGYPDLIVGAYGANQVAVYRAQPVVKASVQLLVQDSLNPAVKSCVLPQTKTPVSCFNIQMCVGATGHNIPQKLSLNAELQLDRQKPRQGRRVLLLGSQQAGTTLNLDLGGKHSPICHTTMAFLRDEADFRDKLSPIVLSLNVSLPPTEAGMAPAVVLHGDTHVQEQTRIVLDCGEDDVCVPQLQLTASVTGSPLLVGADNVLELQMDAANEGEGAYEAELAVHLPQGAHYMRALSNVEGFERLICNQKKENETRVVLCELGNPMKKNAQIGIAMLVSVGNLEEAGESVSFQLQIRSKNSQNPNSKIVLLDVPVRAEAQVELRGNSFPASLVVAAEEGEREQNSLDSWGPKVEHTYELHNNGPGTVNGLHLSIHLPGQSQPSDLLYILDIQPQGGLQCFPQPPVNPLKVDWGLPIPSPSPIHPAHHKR
Sequence (P08514 891-1039 limits assumed): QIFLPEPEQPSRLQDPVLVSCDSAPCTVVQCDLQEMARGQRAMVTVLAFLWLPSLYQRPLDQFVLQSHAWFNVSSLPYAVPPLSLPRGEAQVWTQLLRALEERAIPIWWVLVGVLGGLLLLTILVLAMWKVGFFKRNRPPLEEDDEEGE
Protocol Summary: Inhibition of fibrinogen binding to human platelet glycoprotein alpha IIb beta3 integrin
pIC50: −log10 of the molar value.
Quick reference for pIC50 among some molecules

Molecule	Relation Operator	pIC50
Cc1ccnc(NCCCC(=O)NCC(=O)NC(CC(=O)O)c2ccc(-c3cccc4ccccc34)cc2)c1 (stereo not given)	=	5.37
Cc1ccnc(NCCCC(=O)NCC(=O)NC(CC(=O)O)c2cccc(OC(F)(F)F)c2)c1 (stereo not given)	<	5.00
Cc1ccnc(NCCCCC(=O)NCC(=O)NC(CC(=O)O)c2cc(Cl)cc(Cl)c2)c1 (stereo not given)	<	5.00
Cc1ccnc(NCCCCCCC(=O)NC(CC(=O)O)c2cccc([N+](=O)[O-])c2)c1 (stereo not given)	=	6.24
C[C@H]1C(=O)N[C@@H](CCCN=C(N)N)C(=O)NCC(=O)N[C@@H](CC(=O)O)C(=O)N[C@H](Cc2ccccc2)C(=O)N1C	=	5.22

* * *

Assayed System: Integrin alpha-IIb/beta-3 (Homo sapiens, UniProt P05106+P08514)
Protocol Summary: Inhibition of fibrinogen binding to human platelet glycoprotein alpha IIb beta3 integrin

Molecule	Assayed System	IC50
O=C(O)CC(NC(=O)CNC(=O)CCCNc1ccccn1)c1cccc([N+](=O)[O-])c1 (stereo not given)	Integrin alpha-IIb/beta-3 (Homo sapiens, UniProt P05106+P08514)	7.3 µM
Cc1ccnc(NCCCCC(=O)NNC(=O)NC(CC(=O)O)c2cc(Cl)cc(Cl)c2)c1 (stereo not given)	Integrin alpha-IIb/beta-3 (Homo sapiens, UniProt P05106+P08514)	> 10 µM
O=C(O)CC(NC(=O)CNC(=O)CCCCNc1ccccn1)c1ccc(-c2ccccc2)cc1 (stereo not given)	Integrin alpha-IIb/beta-3 (Homo sapiens, UniProt P05106+P08514)	4.05 µM
Cc1ccnc(NCCCCC(=O)NNC(=O)CC(CC(=O)O)c2cc(Cl)cc(Cl)c2)c1 (stereo not given)	Integrin alpha-IIb/beta-3 (Homo sapiens, UniProt P05106+P08514)	> 10 µM
Cc1ccnc(NCCCCC(=O)NNC(=O)CC(CC(=O)O)c2ccc(-c3ccccc3)cc2)c1 (stereo not given)	Integrin alpha-IIb/beta-3 (Homo sapiens, UniProt P05106+P08514)	3 µM

* * *

Assayed System: Integrin alpha-V/beta-6 (Homo sapiens, UniProt P06756+P18564)
Sequence (P18564 22-788 limits assumed, one chain of several): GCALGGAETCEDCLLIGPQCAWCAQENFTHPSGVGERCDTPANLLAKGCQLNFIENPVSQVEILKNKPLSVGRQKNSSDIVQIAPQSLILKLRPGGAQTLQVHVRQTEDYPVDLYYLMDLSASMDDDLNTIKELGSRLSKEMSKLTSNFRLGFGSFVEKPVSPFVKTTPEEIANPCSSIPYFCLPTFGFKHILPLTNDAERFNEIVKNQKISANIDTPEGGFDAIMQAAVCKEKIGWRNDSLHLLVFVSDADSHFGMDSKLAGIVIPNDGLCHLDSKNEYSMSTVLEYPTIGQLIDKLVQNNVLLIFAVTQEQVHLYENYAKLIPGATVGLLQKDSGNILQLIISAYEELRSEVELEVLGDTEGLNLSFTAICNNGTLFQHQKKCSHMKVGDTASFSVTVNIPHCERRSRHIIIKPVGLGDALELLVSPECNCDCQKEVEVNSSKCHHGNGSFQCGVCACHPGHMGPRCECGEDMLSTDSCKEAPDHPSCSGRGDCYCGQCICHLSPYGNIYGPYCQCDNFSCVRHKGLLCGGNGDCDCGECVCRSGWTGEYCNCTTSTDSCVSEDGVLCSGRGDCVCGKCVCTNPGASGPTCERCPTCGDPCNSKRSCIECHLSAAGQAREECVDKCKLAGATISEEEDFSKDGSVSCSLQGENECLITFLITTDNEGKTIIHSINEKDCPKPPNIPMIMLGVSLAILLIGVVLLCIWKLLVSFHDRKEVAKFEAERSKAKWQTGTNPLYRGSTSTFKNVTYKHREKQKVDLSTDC
Protocol Summary: Inhibition of integrin alpha-v/beta-6 mediated UCLAP-3 cell adhesion to fibronectin
Type: functional, cell-based
Quick reference for log10(IC50) among some molecules
Endpoint Label: log10(IC50) (log10 of the value in µM)

Molecule	Assayed System	Value Observed
Cc1ccnc(NCCCC(=O)NCC(=O)NC(CC(=O)O)c2cccc(OC(F)(F)F)c2)c1 (stereo unspecified)	Integrin alpha-V/beta-6 (Homo sapiens, UniProt P06756+P18564)	-1.52
Cc1ccnc(NCCCCC(=O)NNC(=O)CC(CC(=O)O)c2ccc(-c3ccccc3)cc2)c1 (stereo unspecified)	Integrin alpha-V/beta-6 (Homo sapiens, UniProt P06756+P18564)	0.58
C[C@H]1C(=O)N[C@@H](CCCN=C(N)N)C(=O)NCC(=O)N[C@@H](CC(=O)O)C(=O)N[C@H](Cc2ccccc2)C(=O)N1C	Integrin alpha-V/beta-6 (Homo sapiens, UniProt P06756+P18564)	1.57
Cc1ccnc(NCCCC(=O)NCC(=O)NC(CC(=O)O)c2ccc(-c3cccc4ccccc34)cc2)c1 (stereo unspecified)	Integrin alpha-V/beta-6 (Homo sapiens, UniProt P06756+P18564)	-0.70
Cc1ccnc(NCCCCCCC(=O)NC(CC(=O)O)c2cccc([N+](=O)[O-])c2)c1 (stereo unspecified)	Integrin alpha-V/beta-6 (Homo sapiens, UniProt P06756+P18564)	0.32
N=C(N)NCCCCC(=O)NNC(=O)NC(CC(=O)O)c1ccccc1 (stereo unspecified)	Integrin alpha-V/beta-6 (Homo sapiens, UniProt P06756+P18564)	0.98
O=C(O)CC(NC(=O)CNC(=O)CCCNc1ccccn1)c1cccc([N+](=O)[O-])c1 (stereo unspecified)	Integrin alpha-V/beta-6 (Homo sapiens, UniProt P06756+P18564)	-1.05
Cc1ccnc(NCCCCC(=O)NCC(=O)NC(CC(=O)O)c2cc(Cl)cc(Cl)c2)c1 (stereo unspecified)	Integrin alpha-V/beta-6 (Homo sapiens, UniProt P06756+P18564)	-0.52
Cc1ccnc(NCCCCC(=O)NNC(=O)CC(CC(=O)O)c2cc(Cl)cc(Cl)c2)c1 (stereo unspecified)	Integrin alpha-V/beta-6 (Homo sapiens, UniProt P06756+P18564)	0.20
Cc1ccnc(NCCCCC(=O)NNC(=O)NC(CC(=O)O)c2cc(Cl)cc(Cl)c2)c1 (stereo unspecified)	Integrin alpha-V/beta-6 (Homo sapiens, UniProt P06756+P18564)	-0.52
O=C(O)CC(NC(=O)CNC(=O)CCCCNc1ccccn1)c1ccc(-c2ccccc2)cc1 (stereo unspecified)	Integrin alpha-V/beta-6 (Homo sapiens, UniProt P06756+P18564)	-1.00

* * *

Assayed System: Integrin alpha-V/beta-6 (Homo sapiens, UniProt P06756+P18564)
Protocol Summary: Inhibition of fibronectin binding to recombinant human alphaV-beta6 integrin
Type: protein-complex assay
Would you mind classing the entries by IC50? Ranges: band 1: < 0.6 nM; band 2: ≥ 0.6 nM and < 50 nM; band 3: ≥ 50 nM

Compound	Assigned Category
N=C(N)NCCCCC(=O)NNC(=O)NC(CC(=O)O)c1ccccc1 (stereo unspecified)	band 3
Cc1ccnc(NCCCCCCC(=O)NC(CC(=O)O)c2cccc([N+](=O)[O-])c2)c1 (stereo unspecified)	band 3
Cc1ccnc(NCCCCC(=O)NNC(=O)CC(CC(=O)O)c2ccc(-c3ccccc3)cc2)c1 (stereo unspecified)	band 3
Cc1ccnc(NCCCC(=O)NCC(=O)NC(CC(=O)O)c2ccc(-c3cccc4ccccc34)cc2)c1 (stereo unspecified)	band 1
Cc1ccnc(NCCCC(=O)NCC(=O)NC(CC(=O)O)c2cccc(OC(F)(F)F)c2)c1 (stereo unspecified)	band 1
Cc1ccnc(NCCCCC(=O)NNC(=O)CC(CC(=O)O)c2cc(Cl)cc(Cl)c2)c1 (stereo unspecified)	band 2
O=C(O)CC(NC(=O)CNC(=O)CCCNc1ccccn1)c1cccc([N+](=O)[O-])c1 (stereo unspecified)	band 2
Cc1ccnc(NCCCCC(=O)NNC(=O)NC(CC(=O)O)c2cc(Cl)cc(Cl)c2)c1 (stereo unspecified)	band 2
Cc1ccnc(NCCCCC(=O)NCC(=O)NC(CC(=O)O)c2cc(Cl)cc(Cl)c2)c1 (stereo unspecified)	band 1
C[C@H]1C(=O)N[C@@H](CCCN=C(N)N)C(=O)NCC(=O)N[C@@H](CC(=O)O)C(=O)N[C@H](Cc2ccccc2)C(=O)N1C	band 3

* * *

Assayed System: Integrin alpha-V/beta-3 (Homo sapiens, UniProt P05106+P06756)
Protocol Summary: Inhibition of vitronectin binding to recombinant human alphaV-beta3 integrin
Assay type: protein-complex assay
Endpoint Label: IC50 (nM)

Compound	Endpoint Label	Quantity Unit	Value Observed
O=C(O)CC(NC(=O)CNC(=O)CCCNc1ccccn1)c1cccc([N+](=O)[O-])c1 (centres undefined)	IC50	nM	13
Cc1ccnc(NCCCCC(=O)NCC(=O)NC(CC(=O)O)c2cc(Cl)cc(Cl)c2)c1 (centres undefined)	IC50	nM	53
Cc1ccnc(NCCCCC(=O)NNC(=O)NC(CC(=O)O)c2cc(Cl)cc(Cl)c2)c1 (centres undefined)	IC50	nM	64
O=C(O)CC(NC(=O)CNC(=O)CCCCNc1ccccn1)c1ccc(-c2ccccc2)cc1 (centres undefined)	IC50	nM	0.45
Cc1ccnc(NCCCCCCC(=O)NC(CC(=O)O)c2cccc([N+](=O)[O-])c2)c1 (centres undefined)	IC50	nM	53
Cc1ccnc(NCCCC(=O)NCC(=O)NC(CC(=O)O)c2ccc(-c3cccc4ccccc34)cc2)c1 (centres undefined)	IC50	nM	8
Cc1ccnc(NCCCCC(=O)NNC(=O)CC(CC(=O)O)c2ccc(-c3ccccc3)cc2)c1 (centres undefined)	IC50	nM	4
Cc1ccnc(NCCCCC(=O)NNC(=O)CC(CC(=O)O)c2cc(Cl)cc(Cl)c2)c1 (centres undefined)	IC50	nM	6
Cc1ccnc(NCCCC(=O)NCC(=O)NC(CC(=O)O)c2cccc(OC(F)(F)F)c2)c1 (centres undefined)	IC50	nM	14

* * *

Assayed System: Integrin alpha-V/beta-5 (Homo sapiens, UniProt P06756+P18084)
Sequence (P06756 31-889 limits assumed): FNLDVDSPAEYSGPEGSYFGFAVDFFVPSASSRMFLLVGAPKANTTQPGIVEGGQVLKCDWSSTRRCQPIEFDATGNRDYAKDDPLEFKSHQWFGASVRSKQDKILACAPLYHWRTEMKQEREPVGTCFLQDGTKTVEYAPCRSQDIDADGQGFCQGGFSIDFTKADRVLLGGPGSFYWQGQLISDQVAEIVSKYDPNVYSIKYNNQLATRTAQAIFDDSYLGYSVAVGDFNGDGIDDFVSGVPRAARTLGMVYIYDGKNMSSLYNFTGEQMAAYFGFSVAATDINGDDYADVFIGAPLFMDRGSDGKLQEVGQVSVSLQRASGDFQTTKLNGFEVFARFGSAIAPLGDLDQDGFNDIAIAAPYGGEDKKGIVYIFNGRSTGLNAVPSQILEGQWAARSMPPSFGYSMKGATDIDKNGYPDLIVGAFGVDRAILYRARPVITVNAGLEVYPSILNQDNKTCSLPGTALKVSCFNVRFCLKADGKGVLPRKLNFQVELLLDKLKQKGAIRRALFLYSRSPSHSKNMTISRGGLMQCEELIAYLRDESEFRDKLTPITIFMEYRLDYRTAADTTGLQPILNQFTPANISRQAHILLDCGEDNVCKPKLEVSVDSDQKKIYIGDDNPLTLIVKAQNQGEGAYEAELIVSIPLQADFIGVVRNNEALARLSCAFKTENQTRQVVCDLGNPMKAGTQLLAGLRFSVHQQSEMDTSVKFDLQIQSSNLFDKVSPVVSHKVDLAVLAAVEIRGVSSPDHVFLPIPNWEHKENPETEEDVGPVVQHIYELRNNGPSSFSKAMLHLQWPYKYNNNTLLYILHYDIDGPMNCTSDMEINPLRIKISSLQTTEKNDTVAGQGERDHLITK
Sequence (P06756 891-1048 limits assumed): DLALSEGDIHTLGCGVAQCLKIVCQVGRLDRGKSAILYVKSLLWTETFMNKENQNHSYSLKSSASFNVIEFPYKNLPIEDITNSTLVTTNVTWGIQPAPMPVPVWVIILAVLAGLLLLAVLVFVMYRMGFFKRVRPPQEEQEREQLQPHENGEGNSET
Sequence (P18084 24-799 limits assumed): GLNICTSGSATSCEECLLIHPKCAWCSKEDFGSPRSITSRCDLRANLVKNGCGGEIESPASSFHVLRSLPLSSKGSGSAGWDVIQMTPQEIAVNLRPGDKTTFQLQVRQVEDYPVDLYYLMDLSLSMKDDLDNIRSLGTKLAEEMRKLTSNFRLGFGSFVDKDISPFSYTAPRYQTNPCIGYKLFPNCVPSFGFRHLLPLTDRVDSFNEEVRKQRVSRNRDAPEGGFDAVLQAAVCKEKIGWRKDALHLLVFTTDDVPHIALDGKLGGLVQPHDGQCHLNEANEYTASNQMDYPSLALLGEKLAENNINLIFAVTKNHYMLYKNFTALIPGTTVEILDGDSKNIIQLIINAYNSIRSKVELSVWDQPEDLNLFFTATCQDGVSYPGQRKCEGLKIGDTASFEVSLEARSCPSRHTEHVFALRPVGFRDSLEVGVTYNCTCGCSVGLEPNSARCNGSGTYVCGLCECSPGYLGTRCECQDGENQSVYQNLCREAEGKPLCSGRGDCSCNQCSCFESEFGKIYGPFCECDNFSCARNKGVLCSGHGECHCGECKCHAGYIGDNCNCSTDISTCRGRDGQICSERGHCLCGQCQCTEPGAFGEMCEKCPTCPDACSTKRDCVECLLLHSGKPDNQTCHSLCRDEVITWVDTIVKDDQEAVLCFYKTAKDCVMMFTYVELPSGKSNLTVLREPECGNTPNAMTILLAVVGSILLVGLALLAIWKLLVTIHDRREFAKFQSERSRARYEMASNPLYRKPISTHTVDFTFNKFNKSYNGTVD
Protocol Summary: Inhibition of vitronectin binding to recombinant human alphaV-beta5 integrin
Assay type: protein-complex assay
pIC50: −log10 of the molar value.
Values of pIC50 greater than or equal to 6 map to T; values below map to F.

Compound	Assigned Category
Cc1ccnc(NCCCCC(=O)NCC(=O)NC(CC(=O)O)c2cc(Cl)cc(Cl)c2)c1 (stereo unspecified)	T
Cc1ccnc(NCCCC(=O)NCC(=O)NC(CC(=O)O)c2cccc(OC(F)(F)F)c2)c1 (stereo unspecified)	T
O=C(O)CC(NC(=O)CNC(=O)CCCNc1ccccn1)c1cccc([N+](=O)[O-])c1 (stereo unspecified)	T
Cc1ccnc(NCCCCCCC(=O)NC(CC(=O)O)c2cccc([N+](=O)[O-])c2)c1 (stereo unspecified)	F
O=C(O)CC(NC(=O)CNC(=O)CCCCNc1ccccn1)c1ccc(-c2ccccc2)cc1 (stereo unspecified)	F
Cc1ccnc(NCCCCC(=O)NNC(=O)CC(CC(=O)O)c2ccc(-c3ccccc3)cc2)c1 (stereo unspecified)	F
Cc1ccnc(NCCCC(=O)NCC(=O)NC(CC(=O)O)c2ccc(-c3cccc4ccccc34)cc2)c1 (stereo unspecified)	F
Cc1ccnc(NCCCCC(=O)NNC(=O)NC(CC(=O)O)c2cc(Cl)cc(Cl)c2)c1 (stereo unspecified)	F
N=C(N)NCCCCC(=O)NNC(=O)NC(CC(=O)O)c1ccccc1 (stereo unspecified)	T
Cc1ccnc(NCCCCC(=O)NNC(=O)CC(CC(=O)O)c2cc(Cl)cc(Cl)c2)c1 (stereo unspecified)	F
